Data origin, for the record: ChEMBL document CHEMBL5620352

Test: Oral bioavailability in Sprague-Dawley rat at 10 mg/kg measured upto 24 hrs by LC-MS/MS analysis
Format: ADME, organism-based
Details: in vivo
quantityKind: bioavailability (%)
# number only, unit % dropped from output

Note down bioavailability recorded for `COc1cccc(C(=O)Nc2cccc(Sc3ccc4c(NC(C)=O)n[nH]c4c3)c2)c1`
15

----------
Experiment: AUC(0 to infinity) in Sprague-Dawley rat at 10 mg/kg, po measured upto 24 hrs by LC-MS/MS analysis
Assay type: ADME, organism-based
Settings: in vivo
quantityKind: AUC(0-inf) (ng·h/mL)
# number only, unit ng·h/mL dropped from output

Note down AUC(0-inf) recorded for `COc1cccc(C(=O)Nc2cccc(Sc3ccc4c(NC(C)=O)n[nH]c4c3)c2)c1`
274

----------
Assay: Cmax in Sprague-Dawley rat at 10 mg/kg, po measured upto 24 hrs by LC-MS/MS analysis
Assay type: ADME, organism-based
Conditions: in vivo
quantityKind: Cmax (ng/mL)
# number only, unit ng/mL dropped from output

Note down Cmax recorded for `COc1cccc(C(=O)Nc2cccc(Sc3ccc4c(NC(C)=O)n[nH]c4c3)c2)c1`
113

----------
Assay: Cmax in Sprague-Dawley rat at 1 mg/kg, iv measured upto 24 hrs by LC-MS/MS analysis
Assay type: ADME, organism-based
Details: in vivo
quantityKind: Cmax

Note down Cmax recorded for `COc1cccc(C(=O)Nc2cccc(Sc3ccc4c(NC(C)=O)n[nH]c4c3)c2)c1`
689 ng/mL

----------
Test: Apparent volume of distribution in Sprague-Dawley rat at 1 mg/kg, iv measured upto 24 hrs by LC-MS/MS analysis
Format: ADME, organism-based
Settings: in vivo, read-out: Vz
quantityKind: Vd (L/kg)
# number only, unit L/kg dropped from output

Note down Vd recorded for `COc1cccc(C(=O)Nc2cccc(Sc3ccc4c(NC(C)=O)n[nH]c4c3)c2)c1`
2.16

----------
Assay: Half life in Sprague-Dawley rat at 1 mg/kg, iv measured upto 24 hrs by LC-MS/MS analysis
Type: ADME, organism-based
Conditions: in vivo
quantityKind: half-life (min)
# number only, unit min dropped from output

Note down half-life recorded for `COc1cccc(C(=O)Nc2cccc(Sc3ccc4c(NC(C)=O)n[nH]c4c3)c2)c1`
16.8

----------
Test: Half life in Sprague-Dawley rat at 10 mg/kg, po measured upto 24 hrs by LC-MS/MS analysis
Format: ADME, organism-based
Conditions: in vivo
quantityKind: half-life (min)
# number only, unit min dropped from output

Note down half-life recorded for `COc1cccc(C(=O)Nc2cccc(Sc3ccc4c(NC(C)=O)n[nH]c4c3)c2)c1`
47.4
